The reported measurements were obtained from PubChem BioAssay AID1347404.

experimental system: E3 ubiquitin-protein ligase RBX1 (Homo sapiens) + Cullin-1 (Homo sapiens) (UniProt P62877+Q13616)
Sequence (P62877 whole entry, looked up): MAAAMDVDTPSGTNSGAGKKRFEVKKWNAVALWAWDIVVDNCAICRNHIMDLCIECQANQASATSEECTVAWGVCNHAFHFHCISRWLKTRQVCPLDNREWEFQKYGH
Sequence (Q13616 whole entry, looked up): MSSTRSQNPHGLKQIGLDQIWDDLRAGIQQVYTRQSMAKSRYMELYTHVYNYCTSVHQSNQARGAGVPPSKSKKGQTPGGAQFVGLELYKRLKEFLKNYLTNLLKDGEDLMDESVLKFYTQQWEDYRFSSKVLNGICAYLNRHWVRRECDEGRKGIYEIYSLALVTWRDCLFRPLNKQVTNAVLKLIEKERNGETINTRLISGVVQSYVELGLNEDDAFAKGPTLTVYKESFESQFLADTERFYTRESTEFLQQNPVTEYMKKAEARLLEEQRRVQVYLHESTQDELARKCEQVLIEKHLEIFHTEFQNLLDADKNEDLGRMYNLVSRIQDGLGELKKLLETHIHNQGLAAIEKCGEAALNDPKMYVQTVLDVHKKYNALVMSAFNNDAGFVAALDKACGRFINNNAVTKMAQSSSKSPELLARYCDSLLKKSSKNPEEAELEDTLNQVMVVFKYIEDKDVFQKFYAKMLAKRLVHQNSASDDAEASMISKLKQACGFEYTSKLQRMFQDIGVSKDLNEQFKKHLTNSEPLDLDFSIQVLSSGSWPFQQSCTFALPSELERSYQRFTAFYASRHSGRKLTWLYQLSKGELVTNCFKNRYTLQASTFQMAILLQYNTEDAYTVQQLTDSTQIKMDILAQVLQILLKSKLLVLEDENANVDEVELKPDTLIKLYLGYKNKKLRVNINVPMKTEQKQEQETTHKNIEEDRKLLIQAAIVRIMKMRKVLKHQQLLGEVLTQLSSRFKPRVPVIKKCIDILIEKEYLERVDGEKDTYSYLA
assay summary: inhibitors of human ROC1-CUL1 ubiquitin ligase activity (AID 1347404)
experimental setup: in vitro K48 di-Ub FRET, acceptor:donor ratio, 45 min; at 10 µM; hits give high values
The whole screen tested about 140,000 compounds, of which about 860 (0.61%) were called active. The entries come from a sample that favours actives as a whole.
Below, each of the compounds is paired with its reported inhibition value.
observation type: inhibition

1) c1ccc2c(Sc3ncnc4sc5c(c34)CCCC5)c[nH]c2c1: 0.643% (inactive)
2) COCCCN1C(=O)CC(CC(=O)N2CCN(C)C(c3ccccc3)C2)(c2ccccc2OC)C1=O (configuration not stated): 9.56% (inactive)
3) C#CCOc1ccc(/C=C2\SC(=S)N(c3cccc(C(=O)O)c3)C2=O)cc1OC: -1.21% (inactive)
4) O=C(NCN1CCN(CNC(=O)c2cccnc2)CC1)c1cccnc1: -0.31% (inactive)
5) CCn1c2ccccc2c2cc(C=Nc3cccc(Cl)c3C)ccc21: -4.47% (inactive)
6) O=C(Nc1ccc(S(=O)(=O)O)c2ccccc12)c1ccc(C(=O)Nc2ccc(S(=O)(=O)O)c3ccccc23)cc1: 2.57% (inactive)
7) Cn1c(=O)c2c(nc(SCC(=O)Nc3ccc(OC(F)(F)F)cc3)n2Cc2cccc(Cl)c2)n(C)c1=O: 10% (inactive)
8) Cc1cc(/C=C2/C(=N)N3N=C(c4ccccc4Cl)SC3=NC2=O)c(C)n1-c1ccc(Cl)cc1Cl: 2.61% (inactive)
9) COc1ccccc1-c1nc(CN2CCCC2c2n[nH]c(=O)[nH]2)c(C)o1 (configuration not stated): -4.69% (inactive)
10) OCc1ccc(-c2cc(Cl)cc(Cl)c2)o1: -5.33% (inactive)
11) Cc1ccc(C)c(NC(=O)NC2CCCc3ccccc32)c1 (configuration not stated): -5.58% (inactive)
12) CC1(C)N=C(SCc2ccccc2Cl)c2ccccc2N1: -9.73% (inactive)
13) Clc1ccccc1CSc1nncn2c1cc1occc12: 6.61% (inactive)
14) CCOC(=O)C1=C(C)N=c2s/c(=C\c3cccnc3)c(=O)n2C1c1ccc(OC)c(Br)c1 (configuration not stated): -5.43% (inactive)
15) CC(C)C1=NN2C(=N)/C(=C/c3cccc(OCc4ccc(F)cc4)c3)C(=O)N=C2S1: -4.78% (inactive)
16) CCC(NC1CCN(c2nc(C)c3cc(C)c(C)cc3n2)CC1)c1ccncc1 (configuration not stated): 57.6% (active)
17) O=C(COc1ccccc1Cl)Nc1nncs1: 2.7% (inactive)
18) CCOC(=O)C1=C(C)N=c2s/c(=C\c3ccc(N(CC)CC)cc3O)c(=O)n2C1c1ccc(Br)cc1 (configuration not stated): 49.4% (active)
19) CCOC(=O)C1=c2s/c(=C/c3ccc(Cl)cc3)c(=O)n2C(=N)C(C(=O)OC)C1c1ccc(Cl)cc1 (configuration not stated): -2.16% (inactive)
20) Cc1[nH]nc2c1C(c1cccc(OCc3ccccc3Cl)c1)C(C#N)C(=N)O2 (configuration not stated): -9.52% (inactive)
21) CCC(C1=NN2C(=N)/C(=C\c3ccc(OC(=O)c4ccco4)cc3)C(=O)N=C2S1)c1ccccc1 (configuration not stated): -6.1% (inactive)
22) O=C(O)c1cccc(N2N=C(c3ccc4c5c(cccc35)C(=O)N(c3ccccc3)C4=O)CC2c2ccccc2)c1 (configuration not stated): 44.6% (active)
23) Oc1ccc2oc(SCCOCCOCCOCCSc3cc4cc(O)ccc4o3)cc2c1: 0.44% (inactive)
24) COc1cc(OC)c(OC)cc1CN1CC[C@@H](N2CCC(O)CC2)[C@H](O)C1: 13% (inactive)
25) CC(C)(C)NS(=O)(=O)c1ccc(NC(=O)C2CCCO2)cc1 (configuration not stated): -1.62% (inactive)
26) Cc1ccccc1CS(=O)(=O)N1CCC(Cc2ccccc2)CC1: 8.78% (inactive)
27) CN(C)CCOCCOC(c1ccccc1)c1ccccc1C(F)(F)F (configuration not stated): 0.845% (inactive)
28) Cc1cc2nc(N3CCC(C(=O)NC45CC6CC(CC(C6)C4)C5)CC3)nc(C)c2cc1C: 17.1% (inactive)
29) O=C(NC1CCCN(CCc2ccccc2)C1)c1cccc(N2CCOCC2)c1 (configuration not stated): 5.73% (inactive)
30) COc1cc(/C=C(/C)[N+](=O)[O-])c2c(c1Br)CCCO2: -18% (inactive)
31) N#Cc1cccc(-c2cccc(-c3ccn[nH]3)c2)c1: 2.7% (inactive)
32) Cc1ccc(C2=NN3C(=N)/C(=C/c4ccco4)C(=O)N=C3S2)cc1: 34.8% (active)
33) CCNC(=O)N1CCNC(=O)C1CC(=O)N1CCN(c2ccc(OC)cc2)CC1 (configuration not stated): 16.6% (inactive)
34) CCOC(=O)C1=C(C)N=c2s/c(=C\c3cc(C)n(-c4ccc(Br)cc4)c3C)c(=O)n2C1c1ccccc1Cl (configuration not stated): -10.4% (inactive)
35) C/C(=N\O)c1sc2nc3ccccc3n2c1C: 26.5% (active)
36) CCCC(=O)NC(=S)Nc1ccccc1Sc1ncnc2scc(-c3ccccc3)c12: 3.87% (inactive)
37) COc1ccc(C(=O)CC=Nc2ccc(Oc3ccccc3Cl)cc2)cc1OC: 11.3% (inactive)
38) COc1ccc2nc(SCC#CCSc3nc4ccc(OC)cc4[nH]3)[nH]c2c1: 7.63% (inactive)
39) CNCC#CCOc1ccccc1C(C)(C)C: -2.15% (inactive)
40) O=C(Nc1ccccc1O)c1cccc(S(=O)(=O)Nc2ccc(F)cc2)c1: 1.23% (inactive)
41) C=C(C)COc1ccc(NC(C)=O)cc1: -3.18% (inactive)
42) COCCNC(=O)C1CCN(c2nc(C)c3cc(C)c(C)cc3n2)CC1: -4.41% (inactive)
